Data credit: the supplement of paper PMC10567573

// reported protein stability index per item
B1: TCEB3B (parent)
chain: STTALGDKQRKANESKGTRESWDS

Variants of: B1
experiment summary: protein stability index of a GFP-peptide fusion (GPS, HEK-293T) (PSI 1-6); higher = more stable;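 note: lentivirally expressed fusions sorted by FACS into six bins by GFP to DsRed ratio, PSI derived from sequencing read proportions per bin multiplied by bin number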
condition details: c terminus: a fixed tail appended
Form rule: numeric answer, no unit written next to it.

Below, each entry is followed by its recorded protein stability index result.
K16G	4.52
G17H	3.93
K8L	4.8

What value of measured protein stability index is listed for E14P ?
3.19

Now try K8V .
4.17

Now try S24K .
4.17

Now try K8N .
4.15

Now try D7H .
3.58
